The values you see were collected from PubChem BioAssay AID220.

Test system: CD8F1 mice, subcutaneous mammary adenocarcinoma, T/C%
experiment-description: NCI In Vivo Anticancer Drug Screen. Data for tumor model Mammary Adenocarcinoma CD8F1 (subcutaneous) in CD8F1
measurement-parameters: endpoint: median tumor weight change; dose: 1000.0 mg/kg/injection; schedule: Q01DX001 (ip); vehicle: saline with Tween-80; higher = larger tumour
Records with an inconclusive call do not appear.
// values below are reported T/C
property-name: T/C

compound	reported-measurement
Nc1ccc(S(N)(=O)=O)cc1	124 % of control
CC(=O)Oc1c[nH]c(=O)[nH]c1=O	32 % of control
COc1ccc2c(ccc3oc([N+](=O)[O-])cc32)c1	56 % of control
COc1cc(C(C)(C)C)cc(OC)c1C(O)(c1c(OC)cc(C(C)(C)C)cc1OC)c1c(OC)cc(C(C)(C)C)cc1OC	17 % of control
CCCCn1cnc2c(=S)nc[nH]c21	8 % of control
CCOC(=O)C1(c2ccccc2)C(=O)Oc2ccccc21 (stereo unspecified)	61 % of control
O=C(O)C1Cc2nc[nH]c2CN1CO (stereo unspecified)	77 % of control
C=COC(=O)C(Cc1ccccc1)NC(=O)OCc1ccccc1 (stereo unspecified)	75 % of control
O=C1CN(Cc2ccc3c(c2)OCO3)NO1	88 % of control
Cc1oc2c(C)c3oc(=O)cc(C)c3cc2c1CCl	42 % of control
CCCCOCN(COCCCC)C(C)Cc1ccccc1 (stereo unspecified)	80 % of control

----------
// values below are reported T/C
Tested on: CD8F1 mice, subcutaneous mammary adenocarcinoma, T/C%
experiment-description: NCI In Vivo Anticancer Drug Screen. Data for tumor model Mammary Adenocarcinoma CD8F1 (subcutaneous) in CD8F1
measurement-parameters: endpoint: median tumor weight (est.); dose: 6.25 mg/kg/injection; schedule: Q07DX005 (ip); vehicle: saline with Tween-80; higher = larger tumour
Inconclusive results are not listed.
property-name: T/C

molecule	property-name	reported-measurement
CCCCCCCC(=O)[O][Hg][CH2]C1COC([CH2][Hg][O]C(=O)CCCCCCC)CO1 (stereo not drawn)	T/C	100 % of control
C=CC(=O)N1CN(C(=O)C=C)CN(C(=O)C=C)C1	T/C	111 % of control
CO[C@H]1C[C@@H]2CC[C@@H](C)[C@@](O)(O2)C(=O)C(=O)N2CCCC[C@H]2C(=O)O[C@H]([C@H](C)C[C@@H]2CC[C@@H](O)[C@H](OC)C2)CC(=O)[C@H](C)C=C(C)[C@@H](O)[C@@H](OC)C(=O)[C@H](C)C[C@H](C)/C=C/C=C/C=C1C	T/C	49 % of control

----------
// values below are reported T/C
System: CD8F1 mice, subcutaneous mammary adenocarcinoma, T/C%
experiment-description: NCI In Vivo Anticancer Drug Screen. Data for tumor model Mammary Adenocarcinoma CD8F1 (subcutaneous) in CD8F1
measurement-parameters: endpoint: median tumor weight (est.); dose: 1.0 mg/kg/injection; schedule: Q07DX005 (ip); vehicle: saline; higher = larger tumour
Results filed as inconclusive are left out.

molecule	study-system	T/C
CCCCCCCC(=O)OCC(=O)[C@]1(O)Cc2c(O)c3c(c(O)c2[C@@H](OC2CC(N)C(O)C(C)O2)C1)C(=O)c1c(OC)cccc1C3=O (stereo not given in full)	CD8F1 mice, subcutaneous mammary adenocarcinoma, T/C%	64 % of control
COC(C(=O)C(O)C(C)O)C1Cc2cc3cc(OC4CC(OC(C)=O)C(OC5CC(O)C(OC)C(C)O5)C(C)O4)cc(O)c3c(O)c2C(=O)C1OC1CC(OC2CC(OC3CC(C)(O)C(OC(=O)C(C)C)C(C)O3)C(O)C(C)O2)C(O)C(C)O1 (stereo not given)	CD8F1 mice, subcutaneous mammary adenocarcinoma, T/C%	30 % of control
CCC1=C[C@H]2CN(CCc3c([nH]c4ccccc34)[C@@](C(=O)OC)(c3cc4c(cc3OC)N(C)[C@H]3[C@@](O)(C(=O)NC)[C@H](OC(C)=O)[C@]5(CC)C=CCN6CC[C@]43[C@@H]65)C2)C1	CD8F1 mice, subcutaneous mammary adenocarcinoma, T/C%	46 % of control
CCC1(O)CC2CN(CCc3c([nH]c4ccccc34)C(C(=O)OC)(c3cc4c(cc3OC)N(C)C3C(O)(C(N)=O)C(O)C5(CC)C=CCN6CCC43C65)C2)C1 (stereo not given) (tested in a mixture with another compound)	CD8F1 mice, subcutaneous mammary adenocarcinoma, T/C%	16 % of control
COc1cccc2c1C(=O)c1c(O)c3c(c(O)c1C2=O)C[C@@](O)(C(=O)COC(=O)c1cccnc1)C[C@@H]3OC1CC(N)C(O)C(C)O1 (stereo not given in full)	CD8F1 mice, subcutaneous mammary adenocarcinoma, T/C%	92 % of control

----------
Test system: CD8F1 mice, subcutaneous mammary adenocarcinoma, T/C%
experiment-description: NCI In Vivo Anticancer Drug Screen. Data for tumor model Mammary Adenocarcinoma CD8F1 (subcutaneous) in CD8F1
measurement-parameters: endpoint: median tumor weight (est.); dose: 200.0 mg/kg/injection; schedule: Q07DX005 (ip); vehicle: Klucel (hydroxypropylcellulose) (HPC); higher = larger tumour
Inconclusive results are not listed.

compound	T/C
COC1C(CO)OC(n2cnc3c(=S)nc(N)[nH]c32)C1O (stereo unspecified)	28 % of control
C=CCNc1ccc(C)cc1	62 % of control
Cc1cc(C)c(-c2cc(O)c(C)cc2O)c(C)c1	71 % of control
O=C(O)c1c2c(nc3ccccc13)Cc1ccccc1-2	57 % of control
C1OC1CO[C@@H]1CO[C@H]2[C@@H]1OC[C@H]2OCC1CO1 (stereo partly specified)	57 % of control
OCC1OC(n2cnc3c(NO)ncnc32)C(O)C1O (stereo unspecified)	69 % of control

----------
// values below are reported T/C
Tested on: CD8F1 mice, subcutaneous mammary adenocarcinoma, T/C%
experiment-description: NCI In Vivo Anticancer Drug Screen. Data for tumor model Mammary Adenocarcinoma CD8F1 (subcutaneous) in CD8F1
measurement-parameters: endpoint: median tumor weight (est.); dose: 50.0 mg/kg/injection; schedule: Q07DX005 (ip); vehicle: Klucel (hydroxypropylcellulose) (HPC); higher = larger tumour
Records with an inconclusive call do not appear.
property-name: T/C

compound	study-system	property-name	reported-measurement
CNc1nc(NC)nc(NC)n1	CD8F1 mice, subcutaneous mammary adenocarcinoma, T/C%	T/C	107 % of control
CN(C1=NS(=O)(=O)N=C(N(C)c2ccccc2)O1)c1ccccc1	CD8F1 mice, subcutaneous mammary adenocarcinoma, T/C%	T/C	90 % of control
CCCCCC(=O)O[C@]1(C(C)=O)CC[C@H]2[C@@H]3CCC4=CC(=O)CC[C@]4(C)[C@H]3CC[C@@]21C	CD8F1 mice, subcutaneous mammary adenocarcinoma, T/C%	T/C	101 % of control
[I][Hg][CH2]C1OCCOC1[CH2][Hg][I] (stereo unspecified)	CD8F1 mice, subcutaneous mammary adenocarcinoma, T/C%	T/C	85 % of control
C(C#CCN1CCOCC1)#CCN1CCOCC1	CD8F1 mice, subcutaneous mammary adenocarcinoma, T/C%	T/C	43 % of control
O=C(Nc1ccc(N=C=S)cc1Cl)c1cc(Cl)cc(Cl)c1O	CD8F1 mice, subcutaneous mammary adenocarcinoma, T/C%	T/C	26 % of control

----------
System: CD8F1 mice, subcutaneous mammary adenocarcinoma, T/C%
experiment-description: NCI In Vivo Anticancer Drug Screen. Data for tumor model Mammary Adenocarcinoma CD8F1 (subcutaneous) in CD8F1
measurement-parameters: endpoint: median tumor weight (est.); dose: 100.0 mg/kg/injection; schedule: Q07DX005 (ip); vehicle: suspension in saline; higher = larger tumour
Records with an inconclusive call do not appear.
// values below are reported T/C

compound	T/C
N=c1ccn2c(n1)OC1C(O)C(CO)OC12 (stereo not drawn)	81 % of control
COC1N(C2CC(O)C(CO)O2)C(=O)NC(=O)C1(F)Br (stereo not drawn)	45 % of control
COc1ccc(/C=C/C(=O)c2cc(C(=O)O)c(OC)cc2OC)cc1OC	107 % of control

----------
Test system: CD8F1 mice, subcutaneous mammary adenocarcinoma, T/C%
experiment-description: NCI In Vivo Anticancer Drug Screen. Data for tumor model Mammary Adenocarcinoma CD8F1 (subcutaneous) in CD8F1
measurement-parameters: endpoint: median tumor weight (est.); dose: 2.0 mg/kg/injection; schedule: Q07DX005 (ip); vehicle: saline; higher = larger tumour
Inconclusive results are not listed.

compound	T/C
CN(CO)c1nc(N(C)CO)nc(N(C)CO)n1	110 % of control
CCOC(OCC)C(=O)OCC(=O)[C@]1(O)Cc2c(O)c3c(c(O)c2[C@@H](OC2CC(N)C(O)C(C)O2)C1)C(=O)c1c(OC)cccc1C3=O (some centres undefined)	47 % of control
CCC(C)C(=O)OC1C(=O)OC2CC3C(C)=CC(=O)C(O)C3(C)C3C4(O)OCC23C1C(C)C4O (centres undefined)	70 % of control
Cc1c(N)nc(C(CC(N)=O)NCC(N)C(N)=O)nc1C(=O)NC(C(=O)NC(C)C(O)CC(=O)NC(C(=O)NC(OC1OC(C)C(N)C(O)C1O)C(O)c1nc(-c2nc(C(=O)NCCCC(N)CC(=O)NCCCNCCCCN)cs2)cs1)C(C)O)C(OC1OC(CO)C(O)C(O)C1OC1OC(CO)C(O)C(OC(N)=O)C1O)c1cnc[nH]1 (centres undefined)	15 % of control
